molecular target: Acyl-CoA desaturase 1 (Rattus norvegicus, UniProt P07308); assay: Inhibition of stearoyl-CoA delta9 desaturase in rat microsome
Sequence (P07308 whole entry): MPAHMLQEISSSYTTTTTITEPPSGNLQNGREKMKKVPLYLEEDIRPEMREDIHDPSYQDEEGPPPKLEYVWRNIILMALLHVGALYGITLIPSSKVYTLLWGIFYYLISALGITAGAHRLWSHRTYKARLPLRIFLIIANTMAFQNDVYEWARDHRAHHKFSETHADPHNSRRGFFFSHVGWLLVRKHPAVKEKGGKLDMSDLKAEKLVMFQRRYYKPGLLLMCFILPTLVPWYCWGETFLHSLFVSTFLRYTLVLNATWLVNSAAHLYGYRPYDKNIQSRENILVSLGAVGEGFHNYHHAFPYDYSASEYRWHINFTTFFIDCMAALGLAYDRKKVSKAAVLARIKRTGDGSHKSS
Classification by IC50 follows these ranges: bucket A = under 0.04 µM, bucket B = from 0.04 µM up to 0.3 µM, bucket C = 0.3 µM and over

Entry CC(C)(C)c1nc2ccc(NCc3cccc(C(F)(F)F)c3)cc2n(CCNC(=O)CO)c1=O belongs to which category?
bucket C

Entry Cc1nc2ccc(NCc3cccc(C(F)(F)F)c3)cc2n(CCNC(=O)[C@H](C)O)c1=O belongs to which category?
bucket C

Entry Cc1nc2ccc(NCc3cccc(C(F)(F)F)c3)cc2n(CCNC(=O)CCO)c1=O belongs to which category?
bucket C

Entry Cc1nc2ccc(NCc3cccc(C(F)(F)F)c3)cc2n(CCNC(=O)[C@@H](C)O)c1=O belongs to which category?
bucket C

Entry Cc1nc2ccc(NCc3cccc(C(F)(F)F)c3)cc2n(CCNC(N)=O)c1=O belongs to which category?
bucket A

Entry Cc1nc2ccc(NCc3cccc(C(F)(F)F)c3)cc2n(CCNC(=O)C(O)CO)c1=O (racemic) belongs to which category?
bucket B

Entry COc1ccc(-c2nc3ccc(NCc4ccc(Cl)c(Cl)c4)cc3n(CCNC(C)=O)c2=O)cc1 belongs to which category?
bucket B

Entry CC1(C)Oc2ccc(NCc3ccc(Cl)c(Cl)c3)cc2N(CCNC(=O)CO)C1=O belongs to which category?
bucket A

Entry Cc1nc2ccc(NCc3cccc(C(F)(F)F)c3)cc2n(CCNC(=O)CO)c1=O belongs to which category?
bucket A

Entry COc1ccc(-c2nc3ccc(NCc4ccc(Cl)c(C(F)(F)F)c4)cc3n(CCNC(C)=O)c2=O)cc1 belongs to which category?
bucket A

Entry CC(=O)NCCn1c(=O)c(C)nc2ccc(NCc3cccc(C(F)(F)F)c3)cc21 belongs to which category?
bucket B

Entry O=C(CO)NCCn1c(=O)c(C(F)(F)F)nc2ccc(NCc3cccc(C(F)(F)F)c3)cc21 belongs to which category?
bucket A

Entry COc1ccc(-c2nc3ccc(NCc4cccc(C(F)(F)F)c4)cc3n(CCNC(C)=O)c2=O)cc1 belongs to which category?
bucket B

Entry CC(C)c1nc2ccc(NCc3cccc(C(F)(F)F)c3)cc2n(CCNC(=O)CO)c1=O belongs to which category?
bucket C

Entry CC1Oc2ccc(NCc3ccc(Cl)c(Cl)c3)cc2N(CCNC(=O)CO)C1=O (racemic) belongs to which category?
bucket B

###

molecular target: Acyl-CoA 6-desaturase (Rattus norvegicus); test: Inhibition of stearoyl-CoA delta6 desaturase in rat microsome
Sequence (Q9Z122 whole entry): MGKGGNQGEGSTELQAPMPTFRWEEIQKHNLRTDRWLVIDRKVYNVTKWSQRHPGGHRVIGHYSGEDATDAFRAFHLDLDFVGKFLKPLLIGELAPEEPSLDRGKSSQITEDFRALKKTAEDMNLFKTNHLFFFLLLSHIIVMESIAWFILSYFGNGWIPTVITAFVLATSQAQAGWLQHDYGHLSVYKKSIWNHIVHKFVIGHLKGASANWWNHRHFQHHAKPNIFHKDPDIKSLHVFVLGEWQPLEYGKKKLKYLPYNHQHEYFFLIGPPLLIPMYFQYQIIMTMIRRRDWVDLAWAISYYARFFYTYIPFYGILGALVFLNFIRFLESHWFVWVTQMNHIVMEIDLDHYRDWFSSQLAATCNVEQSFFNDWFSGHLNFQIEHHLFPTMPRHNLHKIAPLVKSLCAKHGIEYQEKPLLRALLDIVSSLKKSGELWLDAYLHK
pIC50: −log10 of the molar value.
Reported endpoint: pIC50

Give reported pIC50 for Cc1nc2ccc(NCc3cccc(C(F)(F)F)c3)cc2n(CCNC(=O)CO)c1=O (Acyl-CoA 6-desaturase (Rattus norvegicus))
< 4.52

###

test: Apparent permeability from apical to basolateral side of human Caco-2 cells; type: ADME, cell-based
Reported endpoint: Papp A→B (×10⁻⁶ cm/s)
Report only the number, with the unit ×10⁻⁶ cm/s understood.

Given the compound Cc1nc2ccc(NCc3cccc(C(F)(F)F)c3)cc2n(CCNC(=O)CO)c1=O , write its reported Papp A→B.
6.8

###

test: Metabolic stability in human liver microsome after 30 mins; format: ADME; details: liver microsomes, read-out: Stability
Reported endpoint: remaining at 0.5 h (%)
Report only the number, with the unit % understood.

Given the compound COc1ccc(-c2nc3ccc(NCc4ccc(Cl)c(Cl)c4)cc3n(CCNC(C)=O)c2=O)cc1 , write its reported remaining at 0.5 h.
83

Given the compound O=C(CO)NCCn1c(=O)c(C(F)(F)F)nc2ccc(NCc3cccc(C(F)(F)F)c3)cc21 , write its reported remaining at 0.5 h.
19

Given the compound CC1(C)Oc2ccc(NCc3ccc(Cl)c(Cl)c3)cc2N(CCNC(=O)CO)C1=O , write its reported remaining at 0.5 h.
3.1

Given the compound O=C(CO)NCCN1C(=O)COc2ccc(NCc3ccc(Cl)c(Cl)c3)cc21 , write its reported remaining at 0.5 h.
32

Given the compound CC1Oc2ccc(NCc3ccc(Cl)c(Cl)c3)cc2N(CCNC(=O)CO)C1=O (racemic) , write its reported remaining at 0.5 h.
2.3

Given the compound Cc1nc2ccc(NCc3cccc(C(F)(F)F)c3)cc2n(CCNC(=O)CO)c1=O , write its reported remaining at 0.5 h.
56

###

assay: Elimination half life in Sprague-Dawley rat at 1 mg/kg, iv; type: ADME, organism-based; design: dose 1 mg/kg, route intravenous; conditions: in vivo, read-out: beta t1/2 (converted)
Reported endpoint: half-life (h)
Report only the number, with the unit h understood.

Given the molecule O=C(CO)NCCN1C(=O)COc2ccc(NCc3ccc(Cl)c(Cl)c3)cc21 , write its reported half-life.
1.07

Given the molecule Cc1nc2ccc(NCc3cccc(C(F)(F)F)c3)cc2n(CCNC(=O)CO)c1=O , write its reported half-life.
0.95

###

Answer each item with its documented clearance.
test: Plasma clearance in Sprague-Dawley rat plasma at 1 mg/kg, iv; type: ADME, organism-based; parameters: dose 1 mg/kg, route intravenous
Report only the number, with the unit L/h/kg understood.

Given the compound Cc1nc2ccc(NCc3cccc(C(F)(F)F)c3)cc2n(CCNC(=O)CO)c1=O , write its reported clearance.
5.29

Given the compound O=C(CO)NCCN1C(=O)COc2ccc(NCc3ccc(Cl)c(Cl)c3)cc21 , write its reported clearance.
3.18

###

assay: Terminal volume of distribution in Sprague-Dawley rat at 1.5 mg/kg, po and 1 mg/kg, iv; type: ADME, organism-based; settings: in vivo, read-out: Vbeta
Answer each item with its documented Vd.
Reply with a number, then the unit it belongs to.

Given the compound O=C(CO)Nc1ccc2ncn(Cc3ccc(Cl)c(C(F)(F)F)c3)c(=O)c2c1 , write its reported Vd.
1.46 L/kg

Given the compound O=C(CO)NCCN1C(=O)COc2ccc(NCc3ccc(Cl)c(Cl)c3)cc21 , write its reported Vd.
4.89 L/kg

Given the compound Cc1nc2ccc(NCc3cccc(C(F)(F)F)c3)cc2n(CCNC(=O)CO)c1=O , write its reported Vd.
7.22 L/kg

Given the compound O=C(CO)Nc1ccc2ncn(Cc3ccc(Cl)c(Cl)c3)c(=O)c2c1 , write its reported Vd.
2.06 L/kg

###

tested on: Rattus norvegicus; assay: Dose normalized AUC in Sprague-Dawley rat at 1 mg/kg, po; format: ADME, organism-based; parameters: dose 1 mg/kg, route oral; conditions: in vivo
Answer each item with its documented AUC.
Reply with a number, then the unit it belongs to.

Give reported AUC for Cc1nc2ccc(NCc3cccc(C(F)(F)F)c3)cc2n(CCNC(=O)CO)c1=O (Rattus norvegicus)
148 ng·h/mL

Give reported AUC for O=C(CO)NCCN1C(=O)COc2ccc(NCc3ccc(Cl)c(Cl)c3)cc21 (Rattus norvegicus)
122 ng·h/mL

Give reported AUC for O=C(CO)Nc1ccc2ncn(Cc3ccc(Cl)c(C(F)(F)F)c3)c(=O)c2c1 (Rattus norvegicus)
451 ng·h/mL

Give reported AUC for COc1ccc(-c2nc3ccc(NCc4ccc(Cl)c(Cl)c4)cc3n(CCNC(C)=O)c2=O)cc1 (Rattus norvegicus)
0 ng·h/mL

Give reported AUC for O=C(CO)Nc1ccc2ncn(Cc3ccc(Cl)c(Cl)c3)c(=O)c2c1 (Rattus norvegicus)
935 ng·h/mL

###

Answer each item with its documented Cmax.
test: Cmax in Sprague-Dawley rat at 1.5 mg/kg, po; type: ADME, organism-based; parameters: dose 1.5 mg/kg, route oral; conditions: in vivo
Report only the number, with the unit ng/mL understood.

Given the molecule O=C(CO)Nc1ccc2ncn(Cc3ccc(Cl)c(Cl)c3)c(=O)c2c1 , write its reported Cmax.
360

Given the molecule Cc1nc2ccc(NCc3cccc(C(F)(F)F)c3)cc2n(CCNC(=O)CO)c1=O , write its reported Cmax.
374

Given the molecule O=C(CO)NCCN1C(=O)COc2ccc(NCc3ccc(Cl)c(Cl)c3)cc21 , write its reported Cmax.
427

Given the molecule O=C(CO)Nc1ccc2ncn(Cc3ccc(Cl)c(C(F)(F)F)c3)c(=O)c2c1 , write its reported Cmax.
439
